Tested on: SNB-75 CNS
measurement-description: NCI-60 one-dose screen, 48 h
applied-conditions: 10 µM unless noted
Procedure: Growth inhibition of the SNB-75 human tumor cell line is measured as a screen for anti-cancer activity. Cells are grown in 96 well plates and exposed to the test compound for 48 hours. Compounds are tested at a single concentration, which is 10^-5 M for most compounds. The reported endpoint is percent growth (GI% or GIPRCNT), where numbers from 0 - 100% represent growth inhibition, and numbers from -100% - 0 represent cell death. For example, a value of 40 represents 60% growth inhibition. […]
This is part of a sample that, as a whole, favours compounds with a hit. Of some 83,000 tested, about 20% had one in any assay. The source made the active and inactive calls. How the source made its calls: active means growth percent below 10; inactive means the rest.
Your answer must be one of the following: active, inactive

Ask: I'd appreciate the recorded outcome for `Cc1cc(N(CCCl)CCCl)ccc1/C=N\NC(=O)c1ccncc1` from this test.
Result: inactive

Ask: I'd appreciate the recorded outcome for `COc1cc(/C=C/[N+](=O)[O-])c([N+](=O)[O-])cc1OC` from this test.
Result: inactive

Ask: I'd appreciate the recorded outcome for O=C([O][Hg][CH2]C1OCCOC1[CH2][Hg][O]C(=O)c1ccccc1)c1ccccc1 (stereo not given) from this test.
Result: inactive

Ask: I'd appreciate the recorded outcome for `COC(=O)[C@@]1(C)CC[C@]2(C)CC[C@]3(C)C4=CC=C5C(=CC(=O)C(O)=C5C)[C@]4(C)CC[C@@]3(C)[C@@H]2C1` from this test.
Result: active

Ask: I'd appreciate the recorded outcome for `O=NN1CCCc2cccc(O)c21` from this test.
Result: inactive

Ask: I'd appreciate the recorded outcome for CC(C)COC(C[N+](=O)[O-])C(Cl)(Cl)Cl (stereo not given) from this test.
Result: inactive

Ask: I'd appreciate the recorded outcome for `COc1cc(NCCCN=C(N)N)c2ncccc2c1` from this test.
Result: inactive

Ask: I'd appreciate the recorded outcome for `N#C[Se]CCN1C(=O)c2ccccc2C1=O` from this test.
Result: active

Ask: I'd appreciate the recorded outcome for CC(C)(C)N1CC1C#N (stereo not given) from this test.
Result: inactive

Ask: I'd appreciate the recorded outcome for `CC(=O)OCC1O[C@@H]([S-])C(OC(C)=O)[C@H](OC(C)=O)[C@@H]1OC(C)=O.[Au+].c1ccc(CN2[CH-]N(Cc3ccccc3)C(c3ccccc3)=C2c2ccccc2)cc1` from this test.
Result: inactive

----------
Test system: NCI-H226 lung
measurement-description: NCI-60 one-dose screen, 48 h (100 = growth as untreated, 0 = no growth, -100 = all killed)
applied-conditions: 10 µM unless noted
The panel holds about 83,000 compounds, 20% with a hit somewhere; the sample as a whole holds those more often.
Sorting guide: entries reporting growth beneath 60% go in the true pile, the rest go in the false pile.

Ask: A record lists O=[N+]([O-])c1ccc([Se]C2CCCCC2Cl)c([N+](=O)[O-])c1 (configuration not stated) . Is its growth below 60%?
Result: false

Ask: A record lists `c1cnc2[nH]cc(-c3csc(-c4cn(CCCCN5CCCCC5)c5ccccc45)n3)c2c1` . Is its growth below 60%?
Result: false

Ask: A record lists `NC(CCl)CCl` . Is its growth below 60%?
Result: false

Ask: A record lists CC(C)(C)C(=O)OCOP(=O)(NCc1ccccc1)C1CCCN(O)C1=O (configuration not stated) . Is its growth below 60%?
Result: true

Ask: A record lists `C=C1C(=O)O[C@H]2[C@H]1CC/C(COC(=O)C(=O)c1cn(Cc3ccccc3)c3ccccc13)=C\CC[C@@]1(C)O[C@@H]21` . Is its growth below 60%?
Result: true

Ask: A record lists CN1C(=O)C23CC4(C56CC78SSC(CO)(C(=O)N7C5Nc5ccccc56)N(C)C8=O)c5ccccc5NC4N2C(=O)C1(CO)SS3 (configuration not stated) . Is its growth below 60%?
Result: true

Ask: A record lists `COC(=O)[C@@H](C)C[C@H](Cc1ccccc1)NC(=O)c1csc([C@@H](C[C@H](C(C)C)N(C)C(=O)[C@@H](NC(=O)C23CC(NC(C)=O)(C2)C3)C2CC2)OC(C)=O)n1` . Is its growth below 60%?
Result: false

Ask: A record lists `CCOP(=O)(Cc1ccc(C#N)cc1)OCC` . Is its growth below 60%?
Result: false

Ask: A record lists `ClCCN(CCCl)Cc1ccc(Nc2ccnc3cc(Cl)ccc23)cc1` . Is its growth below 60%?
Result: false

Ask: A record lists `Clc1cc(N2CC2)nc(N2CC2)n1` . Is its growth below 60%?
Result: false

Ask: A record lists `Clc1cccc(NCOOC2(OOCNc3cccc(Cl)c3)CCCCC2)c1` . Is its growth below 60%?
Result: false

Ask: A record lists `Cc1c(NS(=O)(=O)c2ccccc2)ccc([N+](=O)[O-])c1Cl` . Is its growth below 60%?
Result: false

Ask: A record lists `COc1ccc(/C=C\c2cc(OC)c(OC)c(OC)c2)c(NS(=O)(=O)c2ccc(Cl)cc2)c1O` . Is its growth below 60%?
Result: true

Ask: A record lists `COC(=O)[C@@H](C)C[C@H](Cc1ccccc1)NC(=O)c1csc([C@@H](C[C@H](C(C)C)N(C)C(=O)[C@H](C)NC(=O)[C@H]2CCCN2C)OC(C)=O)n1` . Is its growth below 60%?
Result: false

Ask: A record lists `COc1cc(NCCCN=C(N)N)c2ncccc2c1` . Is its growth below 60%?
Result: false
